- measurement-target: T1, Human BAFF (residues 82-285) (human, UniProt Q9Y275 82-285)
- T1 construct: also called BAFF82-285
- T1 sequence (Q9Y275 82-285): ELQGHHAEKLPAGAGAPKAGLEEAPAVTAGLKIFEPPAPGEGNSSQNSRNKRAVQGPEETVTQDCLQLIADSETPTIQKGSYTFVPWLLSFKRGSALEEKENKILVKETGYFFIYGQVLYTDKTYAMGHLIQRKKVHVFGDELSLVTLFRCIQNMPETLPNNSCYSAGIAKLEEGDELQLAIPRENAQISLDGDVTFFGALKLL
- protocol-notes: competitive displacement ELISA; immobilized BAFF, tracer biotinylated mini-BR3; bivalent Fc construct (avidity); competition ELISA
readout-name: IC50 (nM)
Field format: number, assumed nM, no unit text.

Which value of IC50 has been reported for AGQCSQNEYFDSLLHACIPCQLRCSSNTPPLTCQRYCNASVTNSVKG (Fc fusion, not shown: a dimerising Fc or GST, also called BCMA(wt)-Fc; BCMA-Fc wt) [BCMA-Fc] in the records?
13

The origin of these recorded values is patent US20070249530A1.
